Molecular target: T1, anti-CD28 Fab (SEQ ID NOs: 202, 203)
T1 construct: biotinylated and captured on neutravidin coated plates in the phage ELISA
T1 sequence (VH, as listed by the source, chain 1 of 2): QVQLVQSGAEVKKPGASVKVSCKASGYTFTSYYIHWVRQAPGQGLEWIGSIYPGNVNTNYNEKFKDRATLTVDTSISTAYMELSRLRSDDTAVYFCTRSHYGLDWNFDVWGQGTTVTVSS
T1 sequence (VL, as listed by the source, chain 2 of 2): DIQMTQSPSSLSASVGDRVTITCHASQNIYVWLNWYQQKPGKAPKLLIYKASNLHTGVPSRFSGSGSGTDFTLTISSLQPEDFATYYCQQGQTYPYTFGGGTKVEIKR
Test: phage binding ELISA; biotinylated Fab on neutravidin plate;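 further: clonal phage supernatants added to Fab wells pretreated with CD28 antigen or with blocking buffer only, bound phage read out via HRP-linked anti-M13 antibody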
Each entry below carries its recorded Anti-CD28 Fab (SEQ ID NOs: 202, 203) signal.
property-label: Anti-CD28 Fab (SEQ ID NOs: 202, 203) signal

YCAGHLPMYMAKCL [Phage-367]	1.8
YCDGHSPQYMQKCL [Phage-390]	1.76
YCDGHLGVYMAKCL [Phage-372]	1.79
YCAGHSSEYMWKCL [Phage-340]	1.85

meta.source: patent US20260274955A1
